Test system: E. coli AG100
Test: Broth microdilution MIC in CAMHB
Format: cell-based
Details: Escherichia coli; E. coli AG100 (wild-type parent); MHB; read-out: Minimum Inhibitory Concentration, E. coli AG100
quantity-kind: MIC

CCN1CCN(C(=O)NC(C(=O)N[C@H]2Cc3ccc(C=NOCCN)c(C(=O)O)c3OB2O)c2csc(N)n2)C(=O)C1=O (stereo partly drawn) [Example 62] ... > 128 µg/mL
CCN1CCN(C(=O)NC(C(=O)N[C@H]2Cc3cccc(C(=O)O)c3OB2O)c2ccc(O)c(N)c2)C(=O)C1=O (stereo partly drawn) [Example 29] ... 32 to 64 µg/mL
CCN1CCN(C(=O)N[C@@H](C(=O)N[C@H]2Cc3cccc(C(=O)O)c3OB2O)c2ccc(C(=O)O)c(Cl)c2)C(=O)C1=O (single isomer, unassigned) [Example 154] ... 32 to 64 µg/mL
NCCCN1CCN(C(=O)NC(C(=O)N[C@H]2Cc3cccc(C(=O)O)c3OB2O)c2c(F)cc(O)cc2F)C(=O)C1=O (stereo partly drawn) [Example 183] ... 8 to 16 µg/mL
CCN1CCN(C(=O)NC(C(=O)N[C@H]2Cc3cccc(C(=O)O)c3OB2O)c2cccc(CN)c2)C(=O)C1=O (stereo partly drawn) [Example 108] ... 32 to 64 µg/mL
CCN1CCN(C(=O)NC(C(=O)N[C@H]2Cc3ccc(SCC[N+]4(C)CCCC4)c(C(=O)O)c3OB2O)c2csc(N)n2)C(=O)C1=O.O=C([O-])C(F)(F)F (stereo partly drawn) [Example 65] ... > 128 µg/mL
